B1: CPEB3 Ribozyme (parent)
chain: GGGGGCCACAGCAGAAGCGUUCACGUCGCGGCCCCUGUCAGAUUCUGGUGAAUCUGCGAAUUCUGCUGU

variants of: B1; test: self-cleavage, relative activity (ratio to wild type); higher = more cleavage; co-transcriptional
Classes are defined on self-cleavage with ranges low (below 0.3), middle (0.3 to below 0.7), high (0.7 or more)

A15U U20A: low
C7G G56C: low
G5U A42C: low
U36G G56U: low
G3U G19A: low
A23C C57U: middle
A16C A52C: low
C33A U36A: low
U21C U53C: high
U21A U62G: high
G48A G50C: high
C33A U55C: middle
U49A C54A: middle
G25A U38G: low
G4A C9G: high
G3C U69G: low
G3U A59C: low
G4A U43C: middle
A8C G68U: high
A23C A52G: high
C7U C27G: low
G4C G65A: middle
G14C C45A: middle
G11A A16U: middle
G31A U36C: middle
C45G G58C: high
C24A G47A: high
G14C U38G: low
C54A G65U: middle
G58A A59G: high
G41C C45U: middle
C22A A23C: low
A40U C45A: middle
G14C G68U: middle
G31C G56A: low
C39G G68C: high
G19U C22U: low
U62C U67A: high
C45U U69A: high
